Source listed as ChEMBL document CHEMBL1201862.

Each entry below lists one item and its recorded GI50 value.
Tested on: NCI-H460
run.description: NCI tumour cell line growth inhibition, 48 h
Calls of active or inactive are those of the source. Cut-off read from the data, not from the text of the source: active = GI50 up to about 1.1 µM and inactive = higher.

# chem.smiles, target.or.system, GI50
data = [
    ("CCCCSC1=N/C(=C\\c2ccc(N(C)C)cc2)C(=O)N1", "NCI-H460", "20.8 µM (inactive)"),
    ("c1ccc(CNc2ccc3[nH]c4cnccc4c3c2)cc1", "NCI-H460", "17.9 µM (inactive)"),
    ("CC/C(=N\\NC(=O)c1cccnc1)c1ccc2c(c1)OCCO2", "NCI-H460", "> 100 µM (inactive)"),
]

---

Tested on: HCT-15
GI50 vs 20 µM: less than gives MET; not less than gives NOT MET.

# compound, target.or.system, class.assignment
data = [
    ("CC(C)OCC1CC(CC(=O)Nc2nncs2)C(=O)O1 (configuration not stated)", "HCT-15", "NOT MET"),
    ("Cc1cccc(NC(=O)Cc2nc3ccccc3s2)c1C", "HCT-15", "NOT MET"),
    ("CCOC(=O)NNC(=O)NCc1ccccc1CNC(=O)NNC(=O)OCC", "HCT-15", "NOT MET"),
    ("O=c1oc2ccc3ccccc3c2cc1-c1nnc(-c2ccc([N+](=O)[O-])cc2)[nH]1", "HCT-15", "NOT MET"),
    ("C[N+](C)(C)CC1CCC/C1=N\\OC(=O)c1ccccc1 (configuration not stated)", "HCT-15", "NOT MET"),
    ("O=S(=O)(c1ccccc1)C1(C2(S(=O)(=O)c3ccccc3)CCN=N2)CCN=N1 (configuration not stated)", "HCT-15", "NOT MET"),
    ("CCCCCCCCCCCC1CC(=O)NCCCN(C)CCCCN(C)CCCN1C (configuration not stated)", "HCT-15", "MET"),
    ("COc1ccccc1NC(=O)C1=C(C)NC(C)=C(C(=O)Nc2ccccc2OC)C1c1cccc2ccccc12", "HCT-15", "NOT MET"),
    ("COC(=O)c1ccccc1CC1Cc2cccc(C)c2C1=O (configuration not stated)", "HCT-15", "NOT MET"),
    ("COc1ccc(-c2c(C(C)=O)c(C)n(C3OC(CO)C(O)C(O)C3O)c(=S)c2C#N)cc1 (configuration not stated)", "HCT-15", "NOT MET"),
    ("Cc1ccc(-c2n[nH]c(=O)n2N2C(=O)c3ccccc3C2=O)cc1", "HCT-15", "NOT MET"),
    ("C(=N\\c1ccc(-c2nc3ccccc3[nH]2)cc1)/c1ccc[nH]1", "HCT-15", "NOT MET"),
    ("Cc1ccc2c(C(=O)c3c(C)n(CCN4CCOCC4)c4ccccc34)cccc2c1", "HCT-15", "MET"),
    ("O=C1Oc2cc(O)cc(/C=C/c3ccc(O)cc3)c2[C@@]12c1c(O)cc(O)cc1OC2c1cccc(O)c1 (some centres not stated)", "HCT-15", "NOT MET"),
    ("COc1ccc(C(=O)N=C2N(c3ccccc3)C(=N/c3ccccc3)/C(=N\\c3ccccc3)N2c2ccccc2)cc1", "HCT-15", "NOT MET"),
    ("COc1cccc(-c2nc3c(C(=O)NCCN(C)C)cccc3[nH]2)c1", "HCT-15", "MET"),
    ("CC(C)/C(Cl)=N/OC(=O)Nc1ccc(OC(F)(F)F)cc1", "HCT-15", "MET"),
    ("O=C(c1ccccc1O)c1cc(-c2ncc3c(=O)c4ccccc4oc3n2)c(-c2ccccc2O)[nH]c1=O", "HCT-15", "NOT MET"),
    ("COC(=O)C1(O)C(c2ccccc2)=NC2(C)CCCC21 (configuration not stated)", "HCT-15", "NOT MET"),
    ("COC(=O)C1CC2CC1C1C2SC(F)(F)C1(F)F (configuration not stated)", "HCT-15", "NOT MET"),
    ("CC1(C)OC2OC(C(=O)c3ccccc3)C3OC(C)(C)OC3C2O1 (configuration not stated)", "HCT-15", "NOT MET"),
    ("COc1ccc(/C=C/C(=O)OC2CC34CCNC35CC(OC5(OC)C2OC)c2ccc(OC)c(O)c24)cc1O (configuration not stated)", "HCT-15", "NOT MET"),
    ("Oc1ccc2oc3c(O)c4ccccc4cc3c2c1", "HCT-15", "MET"),
    ("CCOC(=O)/C(=C/c1ccc(C(F)(F)F)cc1)N(CC)CC", "HCT-15", "NOT MET"),
    ("CN(C)c1ccc(C(c2ccc(Cl)cc2)c2ccc(N(C)C)cc2)cc1", "HCT-15", "NOT MET"),
    ("C=CCc1cc(OC)c2c(c1)C(O)CC(c1ccccc1)O2 (configuration not stated)", "HCT-15", "NOT MET"),
    ("C/C(=N\\O)C1CC2C=C(C#N)C1N(Cc1ccccc1)C2 (configuration not stated)", "HCT-15", "NOT MET"),
    ("Cc1ccc(/C(Cl)=C/C=C(C#N)C#N)cc1", "HCT-15", "MET"),
    ("c1ccc2c(c1)Nc1nc3nonc3nc1N2", "HCT-15", "NOT MET"),
    ("Cc1cc(O)c(C(=O)CC2(O)C(=O)Nc3c(Cl)cc(Cl)cc32)c(=O)o1 (configuration not stated)", "HCT-15", "NOT MET"),
    ("COc1ccc(N2C(=O)C3c4[nH]c5ccccc5c4C4CCCCCCC4C3C2=O)cc1 (configuration not stated)", "HCT-15", "MET"),
    ("COC(=O)[C@]1(c2ccc(N(C)C)cc2OC)C[C@@H]2CCCN(CCc3c1[nH]c1ccccc31)C2", "HCT-15", "NOT MET"),
    ("COC(=O)CCCN(C)c1nc(N)n[nH]1", "HCT-15", "NOT MET"),
    ("Cc1nc2c(n1-c1ccccc1)C(=O)c1ccccc1C2=O", "HCT-15", "NOT MET"),
    ("Cc1nc2cc(/N=N/c3c(C)noc3C)ccc2[nH]1", "HCT-15", "NOT MET"),
    ("Cc1cc(C)nc(NS(=O)(=O)c2ccc(Nc3c4ccc(Cl)cc4nc4c(C(=O)Nc5ccc(S(=O)(=O)N=C(N)N)cc5)cccc34)cc2)n1", "HCT-15", "NOT MET"),
]
